Value source: ChEMBL document CHEMBL1629464

For each entry below, report its pIC50 value.
ASSAY_PROTOCOL: Inhibition of guinea pig aldehyde oxidase
Design: species or system Cavia porcellus
Scale explanation: pIC50 corresponds to minus log10 of a concentration expressed in moles per litre.

Quick one: give measured pIC50 for COc1cc(NS(C)(=O)=O)ccc1Nc1c2ccccc2nc2ccccc12
5.11

Quick one: give measured pIC50 for CN(C)CCNC(=O)c1cccc2cc3cc(O)ccc3nc12
7.52

Quick one: give measured pIC50 for CC1=CC(=O)c2ccccc2C1=O
5.51

###

MEASURED_PROPERTY: IC50 (µM)
Quick note: give the figure in µM, leave out the unit.

# assay system Aldehyde oxidase 1 (Oryctolagus cuniculus): give IC50 of C[C@]12CC[C@@H]3c4ccc(O)cc4CC[C@H]3[C@@H]1CC[C@@H]2O [ESTRADIOL]
40
